System: HCT116 cells
Assay: Antiproliferation assay, Cell Titer Glo, 72 hours
Assay type: cell-based
Conditions: Homo sapiens, HCT-116, 72 h
Protocol: HCT116 cells were plated in 384-well plates at 750 cells/well in 50 ul fresh media (McCoy's 5A+10% FBS+1% Penn/Strep) and treated with 0.1 μl candidate compounds in four-fold dilution series using the Janus pinner. Cells were incubated with compounds for 72 hours in 37° C. […] Anti-proliferative effects of these compounds were assessed 72 hours after compound addition using Cell Titer Glo (Promega cat #G7571) as described in product manual by luminescence measurements using an Envision platereader. […]
OUTCOME_MEASURE: IC50 (µM)

Example results:
                      smiles_representation  result_value
0  CN(C)C/C=C/C(=O)Nc1cccc(CN2CCC(NC(=O)c3n[nH]cc3NC(=O)c3c(F)cc(F)cc3F)CC2)c1         0.293
1  CN(C)C/C=C/C(=O)Nc1ccc(N2CC[C@@H](NC(=O)c3n[nH]cc3NC(=O)c3c(Cl)cccc3Cl)C2)cc1         0.714
2  C=CC(=O)Nc1cccc(C(=O)N2CCC[C@@H](NC(=O)c3n[nH]cc3NC(=O)c3c(Cl)cccc3Cl)C2)c1          4.04

[A] C=CC(=O)Nc1ccc(CN2CC[C@H](NC(=O)c3n[nH]cc3NC(=O)c3c(Cl)cccc3Cl)C2)cc1
[B] CN(C)C/C=C/C(=O)Nc1ccc(NC(=O)c2n[nH]cc2NC(=O)c2c(Cl)cccc2Cl)cc1
[C] C=CC(=O)Nc1cccc(S(=O)(=O)N2CCC(NC(=O)c3n[nH]cc3NC(=O)c3c(F)cccc3OC)CC2)c1
# input Arrange these molecules by their IC50, starting with the largest number. Labels, requested order.
# output B, A, C
